For each of the compounds below, state its IC50.
System: CXCR4 (Homo sapiens, UniProt P61073)
Construct: all endogenously expressing CXCR4; endogenous in cells; host or cells: CEM-Nkr, CCRF-CEM, Jurkat, Molt-4; IL-2 stimulated human lymphocytes
Sequence (P61073 whole entry): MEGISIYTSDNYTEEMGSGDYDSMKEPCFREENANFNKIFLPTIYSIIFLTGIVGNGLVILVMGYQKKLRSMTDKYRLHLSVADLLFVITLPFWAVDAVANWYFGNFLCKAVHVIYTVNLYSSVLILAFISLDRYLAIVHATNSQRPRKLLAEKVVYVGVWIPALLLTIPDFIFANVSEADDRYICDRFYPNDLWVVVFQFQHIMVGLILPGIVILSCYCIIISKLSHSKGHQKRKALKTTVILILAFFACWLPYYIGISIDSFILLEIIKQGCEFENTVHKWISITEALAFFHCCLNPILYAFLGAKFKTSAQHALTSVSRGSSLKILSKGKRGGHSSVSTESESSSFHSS
Assay Explanation: chemotaxis assay or 125I SDF-1α binding assay for CXCR4
Condition Info: first or only activity listed, read-out: CXCR4 activity (IC50 class)

Some compounds with recorded IC50:
>>> measured_result("Cc1ccccc1-c1ccc2ccn(CC(=O)NCCN(C)C3CCCCC3)c2c1")
"1000 to 10000 nM"
>>> measured_result("Cc1ccc(-c2ccc3ncn(CC(=O)NCCN(C)C4CCCCC4)c3c2)cc1")
"< 1000 nM"
>>> measured_result("Cc1ccc(-c2ccc3ccn(CC(=O)NCCN4CC(C)CC(C)C4)c3c2)cc1 (stereo not drawn)")
"< 1000 nM"
>>> measured_result("Cc1ccc(-c2ccc3ccn(CC(=O)NCCN(C)C4CCCC4)c3c2)cc1")
"< 1000 nM"
>>> measured_result("Cc1ccc(-c2cccc3c2ccn3CC(=O)NCCN(C)C2CCCCC2)cc1")
"< 1000 nM"
>>> measured_result("CN(CCNC(=O)Cn1ccc2cc(-c3ccc(F)cc3)ccc21)C1CCCCC1")
"< 1000 nM"
>>> measured_result("COc1ccc(-c2ccc3ccn(CC(=O)NCCN(C)C4CCCCC4)c3c2)cc1")
"< 1000 nM"
>>> measured_result("CN(CCNC(=O)Cn1cnc2c(F)c(F)ccc21)C1CCCCC1")
"< 1000 nM"

Attention now shifts to the item below.
Q) Recorded IC50 for `CN(CCNC(=O)Cn1ccc2cccc([N+](=O)[O-])c21)C1CCCCC1` , please?
A) < 1000 nM

---

System: CCXCKR2 (CXCR7) (Homo sapiens, UniProt P25106)
Sequence (P25106 whole entry): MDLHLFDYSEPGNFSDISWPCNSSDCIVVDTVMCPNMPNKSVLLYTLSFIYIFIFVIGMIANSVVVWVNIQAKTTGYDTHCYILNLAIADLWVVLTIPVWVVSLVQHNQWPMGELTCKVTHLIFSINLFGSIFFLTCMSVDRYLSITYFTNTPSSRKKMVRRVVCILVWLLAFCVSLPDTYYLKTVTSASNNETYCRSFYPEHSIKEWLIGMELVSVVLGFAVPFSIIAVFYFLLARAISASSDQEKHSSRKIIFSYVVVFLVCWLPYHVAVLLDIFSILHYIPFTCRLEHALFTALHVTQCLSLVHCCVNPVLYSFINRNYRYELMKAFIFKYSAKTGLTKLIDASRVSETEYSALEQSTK
Assay Explanation: displacement of 125I SDF-1 from CCXCKR2 (CXCR7) on MCF-7 and/or MDA-MB-435S cells
Condition Info: second activity listed in the cell; read-out: CXCR7 activity (IC50 class)
pIC50: −log10 of the molar value.
Answer each item with its documented pIC50.

Worked examples, 2 compounds total:
>>> measured_result("CN(CCNC(=O)Cn1ccc2ccc(-c3ccc(F)cc3)cc21)C1CCCCC1 [No 23]")
"> 6.00"
>>> measured_result("CCCCc1ccc(-c2ccc3ccn(CC(=O)NCCN(C)C4CCCCC4)c3c2)cc1 [No 31]")
"5.00 to 6.00"

State the recorded pIC50 for every item in the following list.
1. COc1ccc(-c2ccc3ccn(CC(=O)NCCN(C)C4CCCCC4)c3c2)cc1 [No 26]
2. CN(CCNC(=O)Cn1ccc2ccc(-c3cccc(C#N)c3)cc21)C1CCCCC1 [No 28]

A)
1. 5.00 to 6.00
2. 5.00 to 6.00

---

System: CCXCKR2 (CXCR7) (Homo sapiens, UniProt P25106)
Construct: expressed in transfected cells; host or cells: MDA-MB-435S transfected with pcDNA3.1(+)-hRDC1, and/or MCF-7 (endogenous receptor)
Assay Explanation: displacement of 125I SDF-1 from CCXCKR2 (CXCR7) on MCF-7 and/or MDA-MB-435S cells
Format: binding
Condition Info: second activity listed in the cell; read-out: CXCR7 activity (IC50 class)
Experimental Readout: IC50

Study these solved cases before continuing.
>>> measured_result("Cc1ccc(-c2ccc3ccn(CC(=O)NCCN(C)C4CCCCC4)c3c2)cc1 [No 24]")
"1000 to 10000 nM"
>>> measured_result("CN(CCNC(=O)Cn1ccc2ccc(-c3ccc4c(ccn4C)c3)cc21)C1CCCCC1 [No 35]")
"1000 to 10000 nM"
>>> measured_result("Cc1cc(-c2ccc3ccn(CC(=O)NCCN(C)C4CCCCC4)c3c2)ccc1F [No 33]")
"< 1000 nM"
>>> measured_result("Cc1cc(C)cc(-c2ccc3ccn(CC(=O)NCCN(C)C4CCCCC4)c3c2)c1 [No 32]")
"1000 to 10000 nM"

// below: IC50 requested for another compound
Q) Fill blank: measured IC50 of the compound CN(CCNC(=O)Cn1ccc2ccc(-c3ccc(Cl)c(Cl)c3)cc21)C1CCCCC1 [No 27] is ____.
A) < 1000 nM
